Where do these numbers come from? They come from patent US7030132B2.

System: IGROV1 parental cells
Assay Method Text: Cytotoxicity, sulphorhodamine (SRB) assay, IGROV1 parental cells
Type: cell-based, human
Condition Notes: Homo sapiens, IGROV-1, 120 h; IGROV1 parental cells, without GF120918, 5 days drug exposure; read-out: IGROV1 IC50
Description: Cytotoxicity was Determined Using the Sulphorhodamine (SRB) Assay. Cells were plated in 96-wells plates, 1500 cells/well. Cells were cultured for 48 h at 37° C. and 5% CO2 in the absence of drugs. […] Using a 96-well plate reader the absorbance at 540 nm is measured. For each drug the IC50 value was determined. […]
pIC50: −log10 of the molar value.
This listing pairs molecules with measured pIC50.
Measured Parameter: pIC50

>  <Molecule>
CCc1c2c(nc3ccc(OC(=O)N4CCC(N5CCCCC5)CC4)cc13)-c1cc3c(c(=O)n1C2)COC(=O)[C@]3(O)CC [CPT11, irinotecan]

>  <Reading>
6.26

$$$$
>  <Molecule>
CC[C@@]1(O)C(=O)OCc2c1cc1n(c2=O)Cc2c-1nc1ccccc1c2CC[Si](C)(C)C [BNP1350]

>  <Reading>
9.36

$$$$
>  <Molecule>
CC[C@@]1(O)C(=O)OCc2c1cc1n(c2=O)Cc2cc3c(CN(C)C)c(O)ccc3nc2-1 [topotecan]

>  <Reading>
8.05

$$$$

* * *

Test system: IGROV1 parental cells
Assay Method Text: Cytotoxicity, sulphorhodamine (SRB) assay, IGROV1 parental cells
Type: cell-based, human
Condition Notes: IC50 without / with 2 μM GF120918, IGROV1
Readings of ratio −/+ GF120918 (IGROV1) for the listed compounds
Measured Parameter: ratio −/+ GF120918 (IGROV1)

>  <Compound>
CCc1c2c(nc3ccc(OC(=O)N4CCC(N5CCCCC5)CC4)cc13)-c1cc3c(c(=O)n1C2)COC(=O)[C@]3(O)CC

>  <Reading>
0.84

$$$$
>  <Compound>
CC[C@@]1(O)C(=O)OCc2c1cc1n(c2=O)Cc2cc3c(CN(C)C)c(O)ccc3nc2-1

>  <Reading>
0.97

$$$$
>  <Compound>
CCc1c2c(nc3ccc(O)cc13)-c1cc3c(c(=O)n1C2)COC(=O)[C@]3(O)CC

>  <Reading>
1.66

$$$$
>  <Compound>
CC[C@@]1(O)C(=O)OCc2c1cc1n(c2=O)Cc2c-1nc1cc3c(cc1c2CN1CCN(C)CC1)OCCO3

>  <Reading>
0.74

$$$$
>  <Compound>
CC[C@@]1(O)C(=O)OCc2c1cc1n(c2=O)Cc2c-1nc1ccccc1c2CC[Si](C)(C)C

>  <Reading>
0.53

$$$$
>  <Compound>
CC[C@@]1(O)C(=O)OCc2c1cc1n(c2=O)Cc2c-1nc1cc(F)c(C)c3c1c2C(N)CC3.CS(=O)(=O)O (stereo partly drawn) [DX8951f]

>  <Reading>
0.60

$$$$

* * *

Tested on: IGROV1 parental cells
Assay Method Text: Cytotoxicity, sulphorhodamine (SRB) assay, IGROV1 parental cells
Assay type: cell-based, human
Condition Notes: IGROV1 parental cells, + 2 μM GF120918; read-out: IGROV1 + GF120918 IC50
pIC50: −log10 of the molar value.
Measured Parameter: pIC50

>  <Molecule>
CC[C@@]1(O)C(=O)OCc2c1cc1n(c2=O)Cc2c-1nc1cc3c(cc1c2CN1CCN(C)CC1)OCCO3

>  <Reading>
9.06

$$$$
>  <Molecule>
CC[C@@]1(O)C(=O)OCc2c1cc1n(c2=O)Cc2cc3c(CN(C)C)c(O)ccc3nc2-1

>  <Reading>
8.03

$$$$
>  <Molecule>
CCc1c2c(nc3ccc(OC(=O)N4CCC(N5CCCCC5)CC4)cc13)-c1cc3c(c(=O)n1C2)COC(=O)[C@]3(O)CC

>  <Reading>
6.19

$$$$
>  <Molecule>
CCc1c2c(nc3ccc(O)cc13)-c1cc3c(c(=O)n1C2)COC(=O)[C@]3(O)CC

>  <Reading>
8.96

$$$$
>  <Molecule>
CC[C@@]1(O)C(=O)OCc2c1cc1n(c2=O)Cc2c-1nc1cc(F)c(C)c3c1c2C(N)CC3.CS(=O)(=O)O (stereo partly drawn) [DX8951f]

>  <Reading>
9.77

$$$$
>  <Molecule>
CC[C@@]1(O)C(=O)OCc2c1cc1n(c2=O)Cc2c-1nc1ccccc1c2CC[Si](C)(C)C

>  <Reading>
9.08

$$$$
